Kindly supply the reported inhibition at 1 µM values for the records listed here.
Molecular target: recombinant human 17β-HSD2 (Homo sapiens, UniProt P37059)
Construct: made in house; host or cells: Sf9 insect cells (baculovirus, Bac to Bac Expression System)
Sequence (P37059 whole entry): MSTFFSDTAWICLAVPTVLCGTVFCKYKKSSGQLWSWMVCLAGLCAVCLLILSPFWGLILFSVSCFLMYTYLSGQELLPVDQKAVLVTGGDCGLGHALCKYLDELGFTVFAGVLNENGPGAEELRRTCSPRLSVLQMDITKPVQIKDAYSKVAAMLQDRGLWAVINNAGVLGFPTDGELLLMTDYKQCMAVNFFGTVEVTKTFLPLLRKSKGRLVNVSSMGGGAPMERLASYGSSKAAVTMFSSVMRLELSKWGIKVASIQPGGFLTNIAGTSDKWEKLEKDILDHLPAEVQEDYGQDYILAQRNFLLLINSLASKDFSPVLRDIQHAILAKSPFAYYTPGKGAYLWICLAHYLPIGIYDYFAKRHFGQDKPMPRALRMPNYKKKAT
Assay: Recombinant 17β-HSD2 assay (HPLC, 3H-estradiol conversion)
Assay type: biochemical
Conditions: 1 μm compound; 50 nM estradiol, 1 mM β-NAD; read-out: Inhibition of rec. 17β-HSD2
Numbers only, in %.

These solved cases illustrate the format of a correct answer.
Query string: Retrieve inhibition at 1 µM measured for C[C@]12CC[C@@H]3c4ccc(B(O)O)cc4CC[C@H]3[C@@H]1[C@@H](CCCC(=O)N1CCOCC1)CC2(F)F [Compound 47] and print it.
Result string: 12.9

Query string: Retrieve inhibition at 1 µM measured for Cc1cccc2c(CCNC(=O)CC[C@@H]3CC(F)(F)[C@@]4(C)CC[C@@H]5c6ccc(B(O)O)cc6CC[C@H]5[C@H]34)c[nH]c12 [Compound 67] and print it.
Result string: 15.8

# batch: return inhibition at 1 µM for each of the 5 compounds below
1. C[C@]12CC[C@@H]3c4ccc(B(O)O)cc4CC[C@H]3[C@@H]1[C@H](CCC(=O)NCc1ccccc1)CC2(F)F [Compound 63]
2. C[C@]12CC[C@@H]3c4ccc(B(O)O)cc4CC[C@H]3[C@@H]1[C@H](CCC(=O)NCc1ccc3c(c1)OCO3)CC2(F)F [Compound 60]
3. C[C@]12CC[C@@H]3c4ccc(B(O)O)cc4CC[C@H]3[C@@H]1[C@H](CCC(=O)NC1CCCCC1)CC2=O [Compound 32]
4. C[C@]12CC[C@@H]3c4ccc(B(O)O)cc4CC[C@H]3[C@@H]1[C@H](CCC(=O)NCc1cccnc1)CC2(F)F [Compound 62]
5. C[C@]12CC[C@@H]3c4ccc(B(O)O)cc4CC[C@H]3[C@@H]1[C@H](CCC(=O)NC1CCCCC1)CC2(F)F [Compound 59]

Result string:
[16.9, 12.5, 3.5, 8.3, 15.2]

Query string: Retrieve inhibition at 1 µM measured for COc1ccc(CCN(C)C(=O)CC[C@@H]2CC(F)(F)[C@@]3(C)CC[C@@H]4c5ccc(B(O)O)cc5CC[C@H]4[C@H]23)cc1OC [Compound 72] and print it.
Result string: 5.3

Recorded values, source patent US8288367B2.
